Hey, just so you know, these numbers are from patent US20260242735A1.

- targetOrSystem: human CD33 V25I (human, UniProt P20138 18-364)
- Sequence (P20138 18-364 V25I limits assumed): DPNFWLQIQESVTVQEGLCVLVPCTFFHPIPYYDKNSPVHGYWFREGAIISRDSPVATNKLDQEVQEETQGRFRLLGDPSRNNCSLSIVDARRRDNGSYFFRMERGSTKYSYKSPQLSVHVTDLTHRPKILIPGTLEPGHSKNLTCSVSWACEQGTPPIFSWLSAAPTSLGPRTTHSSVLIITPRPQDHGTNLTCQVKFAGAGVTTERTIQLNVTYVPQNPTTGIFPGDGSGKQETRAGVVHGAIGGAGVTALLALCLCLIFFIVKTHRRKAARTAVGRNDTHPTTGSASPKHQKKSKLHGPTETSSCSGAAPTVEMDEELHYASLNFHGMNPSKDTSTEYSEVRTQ
- testDetails: flow cytometry, mutant on cells, IgG
Reported Mean % WT Binding values for the following binders.
# number only, unit % WT binding dropped from output

Below, 3 binders whose answers are already recorded.
{"columns": ["binder", "Mean % WT Binding, % WT binding"],
 "data": [
  ["Refmab #3 (antibody, human IgG1, V domains shown, Tested in IgG format; human IgG1 Fc silent (PG-LALA)) VH: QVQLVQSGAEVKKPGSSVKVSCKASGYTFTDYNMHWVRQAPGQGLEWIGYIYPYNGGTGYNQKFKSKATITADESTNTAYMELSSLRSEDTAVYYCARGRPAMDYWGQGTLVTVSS VL: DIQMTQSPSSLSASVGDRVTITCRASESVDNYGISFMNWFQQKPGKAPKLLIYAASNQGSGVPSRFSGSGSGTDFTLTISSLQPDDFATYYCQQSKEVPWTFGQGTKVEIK", 113],
  ["Refmab #2 (antibody, human IgG1, V domains shown, Tested in IgG format; human IgG1 Fc silent (PG-LALA)) VH: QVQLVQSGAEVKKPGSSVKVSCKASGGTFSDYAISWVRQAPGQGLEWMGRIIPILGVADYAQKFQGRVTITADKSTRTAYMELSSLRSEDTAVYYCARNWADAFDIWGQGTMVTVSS VL: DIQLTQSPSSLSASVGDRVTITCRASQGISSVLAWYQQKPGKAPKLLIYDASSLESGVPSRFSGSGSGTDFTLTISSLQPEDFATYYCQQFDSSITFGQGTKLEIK", 114],
  ["Refmab #1 (antibody, human IgG1, V domains shown, Tested in IgG format; human IgG1 (Absolute Antibody hP67.6, Cat. No. Ab00283-10.0); also called hP67.6) VH: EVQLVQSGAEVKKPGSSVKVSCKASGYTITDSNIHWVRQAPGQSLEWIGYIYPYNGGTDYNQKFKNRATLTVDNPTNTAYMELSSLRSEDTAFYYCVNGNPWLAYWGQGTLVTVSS VL: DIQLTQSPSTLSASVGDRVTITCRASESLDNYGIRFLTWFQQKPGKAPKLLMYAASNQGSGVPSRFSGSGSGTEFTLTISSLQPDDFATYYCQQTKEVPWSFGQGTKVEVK", 113]
]}

Let us examine a further case.
I would be grateful if you could share the reported Mean % WT Binding for Refmab #4 (antibody, human IgG1, V domains shown, Tested in IgG format; human IgG1 Fc silent (PG-LALA)) VH: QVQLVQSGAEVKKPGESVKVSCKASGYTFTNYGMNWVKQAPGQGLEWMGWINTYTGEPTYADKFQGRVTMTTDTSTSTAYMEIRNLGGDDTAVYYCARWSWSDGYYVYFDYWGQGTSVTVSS VL: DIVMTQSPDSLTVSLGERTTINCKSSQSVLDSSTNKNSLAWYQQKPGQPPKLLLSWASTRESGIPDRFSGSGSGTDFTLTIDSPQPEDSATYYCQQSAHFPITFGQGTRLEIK . 104
